- Assay summary: Stability in liver microsomes, human
Just a reminder that ties go to F: only Trep Concentration 0 min strictly below 0.003 µM counts as T.

In [3]: df
Out[3]:
                                    compound  qualitative_label
 0  CCCCCC(CCC1C(O)CC2Cc3c(cccc3OCC(=O)O)CC21)OC(=O)CCC(=O)N1CCOCC1 (stereo not shown)                  T
 1  CCCCCC(CCC1C(O)CC2Cc3c(cccc3OCC(=O)O)CC21)OCC (stereo not shown)                  T
 2  CCCCCC1CCC2C(CC3Cc4c(cccc4OCC(=O)O)CC32)OP(=O)(Oc2ccccc2)O1 (mixture of isomers)                  T
 3  CCCCCC(CCC1C(O)CC2Cc3c(cccc3OCC(=O)O)CC21)OC(=O)C(C)(C)C (stereo not shown)                  F
 4  CCCCCC(CCC1C(O)CC2Cc3c(cccc3OCC(=O)O)CC21)OC(=O)C12CC3CC(CC(C3)C1)C2 (stereo not shown)                  F
 5  CCCCCC(O)CCC1C(OC)CC2Cc3c(cccc3OCC(=O)O)CC21 (stereo not shown)                  F
 6  CCCCCC(CCC1C(O)CC2Cc3c(cccc3OCC(=O)O)CC21)OC(=O)OCC (stereo not shown)                  F
 7  CCCCCC(CCC1C(O)CC2Cc3c(cccc3OCC(=O)O)CC21)OCCC (stereo not shown)                  T
 8  CCCCC[C@H]1CC[C@@H]2[C@H]3Cc4cccc(OCC(=O)O)c4C[C@H]3C[C@H]2OC(=O)O1                  F
 9  CCCCCC(CCC1C(O)CC2Cc3c(cccc3OCC(=O)O)CC21)OC(=O)NCC(=O)O (stereo not shown)                  T
10  CCCCCC(CCC1C(O)CC2Cc3c(cccc3OCC(=O)O)CC21)OCC(=O)O (stereo not shown)                  T
11  CCCCCC(CCC1C(O)CC2Cc3c(cccc3OCC(=O)O)CC21)OC(=O)c1ccc(OC(F)(F)F)cc1 (stereo not shown)                  F
12  CCCCCC(CCC1C(O)CC2Cc3c(cccc3OCC(=O)O)CC21)OC(=O)CCN (stereo not shown)                  T
13  CCCCCC(CCC1C(O)CC2Cc3c(cccc3OCC(=O)O)CC21)OCCN1CCOCC1 (stereo not shown)                  F
14  CCCCCC(CCC1C(O)CC2Cc3c(cccc3OCC(=O)O)CC21)OC(=O)CN (stereo not shown)                  F
15  CCCCCC(CCC1C(O)CC2Cc3c(cccc3OCC(=O)O)CC21)OC(=O)C(N)CCCCN (stereo not shown)                  F
16  CCCCCC(CCC1C(O)CC2Cc3c(cccc3OCC(=O)O)CC21)OC(=O)c1ccc(O)c(O)c1 (stereo not shown)                  F
17  CCCCCC(CCC1C(O)CC2Cc3c(cccc3OCC(=O)O)CC21)OC(C)=O (stereo not shown)                  F
18  CCCCCC(CCC1C(O)CC2Cc3c(cccc3OCC(=O)O)CC21)OCOC(=O)C(C)(C)C (stereo not shown)                  F
19  CCCCCC(CCC1C(O)CC2Cc3c(cccc3OCC(=O)O)CC21)OC(=O)c1ccccc1O (stereo not shown)                  F
20  CCCCC[C@@H](CC[C@@H]1[C@H]2Cc3cccc(OCC(=O)O)c3C[C@H]2C[C@H]1O)OC(=O)[C@@H](N)C(C)C                  F
21  CCCCCC(CCC1C(O)CC2Cc3c(cccc3OCC(=O)O)CC21)OC(=O)OC(C)C (stereo not shown)                  F
22  CCCCCC(CCC1C(O)CC2Cc3c(cccc3OCC(=O)O)CC21)OC(=O)CC (stereo not shown)                  F
23  CCCCCC(CCC1C(O)CC2Cc3c(cccc3OCC(=O)O)CC21)OC(=O)COc1ccccc1 (stereo not shown)                  F
24  CCCCCC(CCC1C(O)CC2Cc3c(cccc3OCC(=O)O)CC21)OC(=O)NCCO (stereo not shown)                  T
25  CCCCCC(CCC1C(O)CC2Cc3c(cccc3OCC(=O)O)CC21)OC(=O)C1CCCN1 (stereo not shown)                  F
26  CCCCCC(CCC1C(O)CC2Cc3c(cccc3OCC(=O)O)CC21)OC (stereo not shown)                  F
27  CCCCCC(CCC1C(O)CC2Cc3c(cccc3OCC(=O)O)CC21)OC(=O)CCC(=O)O (stereo not shown)                  F
28  CCCCCC(CCC1C(O)CC2Cc3c(cccc3OCC(=O)O)CC21)OC(=O)C(C)C (stereo not shown)                  F
29  CCCCCC(CCC1C(O)CC2Cc3c(cccc3OCC(=O)O)CC21)OC(=O)OCC(=O)O (stereo not shown)                  T
30  CCCCCC(CCC1C(O)CC2Cc3c(cccc3OCC(=O)O)CC21)OC(=O)N1CCCCC1 (stereo not shown)                  T
31  CCCCCC(CCC1C(O)CC2Cc3c(cccc3OCC(=O)O)CC21)Oc1ccccc1C(=O)O (stereo not shown)                  T
32  CCCCCC(CCC1C(O)CC2Cc3c(cccc3OCC(=O)O)CC21)OC(=O)c1ccc(O)cc1 (stereo not shown)                  F
33  CCCCCC(O)CCC1C(OC(=O)CCC(=O)O)CC2Cc3c(cccc3OCC(=O)O)CC21 (stereo not shown)                  T

Ref: patent US12491170B2
